System: RS4; 11 leukaemia cell line
Test: In vitro cytotoxicity, Microculture Tetrazolium Assay (MTT)
Assay type: cell-based
Details: Homo sapiens, 11 cells exposed for 48 hours
Structures can show the parent of a compound that is named as a salt.
Threshold check on IC50: strictly below 60 nM is class 1; on or above 60 nM is class 0.

compound: Cc1c(C(=O)N(C)c2ccc(O)cc2)cc(-c2cc3c(cc2C(=O)N2Cc4ccccc4C[C@H]2CN2CCN(C)CC2)CN(C(=O)Oc2cccc(C(=O)O)c2)CC3)n1C [Example 733]
label value: class 0

compound: C[C@@H]1Cc2ccccc2CN1C(=O)c1cc2c(cc1-c1cc(C(=O)N(C)c3ccc(O)cc3)c3n1CCCC3)CN(C(=O)OCc1cnc3[nH]ccc3c1)C2 [Example 64]
label value: class 0

compound: Cc1c(C(=O)N(C)c2ccccc2)cc(-c2cc3c(cc2C(=O)N2Cc4ccccc4C[C@H]2C)CNCC3)n1C [Example 119, hydrochloride]
label value: class 0

compound: Cc1c(C(=O)N(C)c2ccc(O)cc2)cc(-c2cc3c(cc2C(=O)N2Cc4ccccc4C[C@H]2CN2CCOCC2)CN(C(=O)Oc2ccc4cc[nH]c4c2)CC3)n1C [Example 575]
label value: class 1

compound: C[C@@H]1Cc2ccccc2CN1C(=O)c1cc2c(cc1-c1cc(C(=O)N(C)c3ccc(O)cc3)c3n1CCCC3)CCN(C(=O)Cc1cccc(N3CCN(C)CC3)c1)C2 [Example 169]
label value: class 1

compound: Cc1c(C(=O)N(C)c2ccccc2)cc(-c2cc3c(cc2C(=O)N2Cc4ccccc4C[C@H]2C)CN(C(=O)Cc2ccc(NCCN(C)C)cc2)CC3)n1C [Example 149]
label value: class 0

compound: C[C@@H]1Cc2ccccc2CN1C(=O)c1cc2c(cc1-c1cc(C(=O)N(C)c3ccc(O)cc3)c3n1CCCC3)CCN(C(=O)Cc1ccc(NCCN3CCOCC3)cc1)C2 [Example 96]
label value: class 1

compound: CN(C(=O)c1cc(-c2cc3c(cc2C(=O)N2Cc4ccccc4C[C@H]2CN2CCOCC2)CN(C(=O)Cc2cccnc2)C3)n2c1CCCC2)c1ccc(O)cc1 [Example 42]
label value: class 0

compound: CN(C(=O)c1cc(-c2cc3c(cc2C(=O)N2Cc4ccccc4C[C@H]2CN2CCOCC2)CNC3)n2c1CCCC2)c1ccc(O)cc1 [Example 7, dihydrochloride salt]
label value: class 0

compound: Cc1c(C(=O)N(C)c2ccc(O)cc2)cc(-c2cc3c(cc2C(=O)N2Cc4ccccc4C[C@H]2C)CN(C(=O)NCc2ccccc2)C3)n1C [Example 111]
label value: class 0

compound: CCCCN(CCCC)C(=O)c1cc(-c2cc3c(cc2C(=O)N2Cc4ccccc4C[C@H]2C)CN(C(=O)Cc2ccccc2)CC3)n(C)c1C [Example 164]
label value: class 0

compound: Cc1c(C(=O)N(C)c2ccccc2)cc(-c2cc3c(cc2C(=O)N2Cc4ccccc4C[C@H]2CN2CCOCC2)CN(C(=O)Cc2ccc(C#N)cc2)CC3)n1C [Example 151]
label value: class 1

compound: Cc1c(C(=O)N(C)c2ccc(O)cc2)cc(-c2cc3c(cc2C(=O)N2Cc4ccccc4C[C@H]2CCN2CCOCC2)CN(C(=O)OC2CCCCC2)CC3)n1C [Example 807]
label value: class 1

compound: Cc1c(C(=O)N(C)c2ccc(O)cc2)cc(-c2cc3c(cc2C(=O)N2Cc4ccccc4C[C@H]2CN(C)C)CN(C(=O)Oc2ccccc2)CC3)n1C [Example 211]
label value: class 1

compound: Cc1c(C(=O)N(C)c2ccc(O)cc2)cc(-c2cc3c(cc2C(=O)N2Cc4ccccc4C[C@H]2C)CN(C(=O)Oc2ccc(N(C)CCN(C)C)cc2)CC3)n1C [Example 474]
label value: class 1

compound: Cc1c(C(=O)N(C)c2ccc(O)cc2)cc(-c2cc3c(cc2C(=O)N2Cc4ccccc4C[C@H]2C)CN(C(=O)Oc2cccc(C(=O)O)c2)CC3)n1C [Example 715]
label value: class 0

compound: CNC(=O)N1CCc2cc(-c3cc(C(=O)N(C)c4ccc(O)cc4)c4n3CCCC4)c(C(=O)N3Cc4ccccc4C[C@H]3C)cc2C1 [Example 79]
label value: class 0

* * *

Target: Bcl-2 protein (histag-Bcl-2, UniProtKB P10415) (Homo sapiens (Human), UniProt P10415)
Sequence (P10415 whole entry): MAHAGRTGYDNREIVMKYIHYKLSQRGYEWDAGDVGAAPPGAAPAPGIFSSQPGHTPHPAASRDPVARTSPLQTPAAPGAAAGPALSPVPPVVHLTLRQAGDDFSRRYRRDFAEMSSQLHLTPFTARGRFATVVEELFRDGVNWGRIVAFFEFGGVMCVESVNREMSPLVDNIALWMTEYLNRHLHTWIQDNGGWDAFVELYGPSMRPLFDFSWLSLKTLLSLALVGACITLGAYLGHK
Test: Inhibition of Bcl-2 by the fluorescence polarisation technique
Format: binding
Conditions: fluorescence polarisation test; incubation for 2 hours; read-out: IC50 (nM) Bcl-2 FP
Structures can show the parent of a compound that is named as a salt.
Consider the following molecules and their measured IC50 readings.
readout label: IC50 (nM)

molecule: C[C@@H]1Cc2ccccc2CN1C(=O)c1cc2c(cc1-c1cc(C(=O)N(c3ccccc3)c3ccc(O)cc3)c3n1CCCC3)CN(C(=O)Oc1ccccc1)C2 [Example 133]
display unit: nM
assay value: 7
--
molecule: CN(C(=O)c1cc(-c2cc3c(cc2C(=O)N2Cc4ccccc4C[C@H]2CN2CCOCC2)CN(S(=O)(=O)c2cccnc2)C3)n2c1CCCC2)c1ccc(O)cc1 [Example 22, hydrochloride]
display unit: nM
assay value: 70
--
molecule: Cc1c(C(=O)N(C)c2ccc(O)cc2)cc(-c2cc3c(cc2C(=O)N2Cc4ccccc4C[C@H]2CN2CCOCC2)CN(C(=O)Oc2ccc(Br)cc2)CC3)n1C [Example 784]
display unit: nM
assay value: 5.1

* * *

IC50 values by entry
Test system: RS4; 11 leukaemia cell line
Test: In vitro cytotoxicity, Microculture Tetrazolium Assay (MTT)
Assay type: cell-based
Conditions: Homo sapiens, 11 cells exposed for 48 hours
Where a name gives a salt, the structure may show the parent alone.
readout label: IC50 (nM)

compound: Cc1c(C(=O)N(C)c2ccccc2)cc(-c2cc3c(cc2C(=O)N2Cc4ccccc4C[C@H]2CN2CCN(C)CC2)CN(C(=O)Oc2cccc(C(=O)O)c2)CC3)n1C
target under test: RS4; 11 leukaemia cell line
readout label: IC50
display unit: nM
bound operator: >
assay value: 150

compound: Cc1c(C(=O)N(C)c2ccc(O)cc2)cc(-c2cc3c(cc2C(=O)N2Cc4ccccc4C[C@H]2C)CN(C(=O)CN2CCCCC2)CC3)n1C
target under test: RS4; 11 leukaemia cell line
readout label: IC50
display unit: nM
bound operator: >
assay value: 150

compound: CC(Cc1ccc(Cl)cc1)C(=O)N1Cc2cc(C(=O)N3Cc4ccccc4C[C@H]3C)c(-c3cc(C(=O)N(C)c4ccc(O)cc4)c4n3CCCC4)cc2C1 (stereo partly shown)
target under test: RS4; 11 leukaemia cell line
readout label: IC50
display unit: nM
bound operator: >
assay value: 150

compound: C[C@@H]1Cc2ccccc2CN1C(=O)c1cc2c(cc1-c1cc(C(=O)N(C)c3ccc(O)cc3)c3n1CCCC3)CN(C(=O)C1CC1)C2
target under test: RS4; 11 leukaemia cell line
readout label: IC50
display unit: nM
bound operator: >
assay value: 150

compound: Cc1c(C(=O)N(C)c2ccc(O)cc2)cc(-c2cc3c(cc2C(=O)N2Cc4ccccc4C[C@H]2CN2CCOCC2)CN(C(=O)COc2ccccc2)C3)n1C
target under test: RS4; 11 leukaemia cell line
readout label: IC50
display unit: nM
bound operator: =
assay value: 163

compound: CN(C(=O)c1cc(-c2cc3c(cc2C(=O)N2Cc4ccccc4C[C@H]2CN2CCOCC2)CN(C(=O)CCc2ccccc2)C3)n2c1CCCC2)c1ccc(O)cc1 [Example 9, hydrochloride]
target under test: RS4; 11 leukaemia cell line
readout label: IC50
display unit: nM
bound operator: =
assay value: 125

compound: Cc1cccc(OC(=O)N2CCc3cc(-c4cc(C(=O)N(C)c5ccc(O)cc5)c5n4CCCC5)c(C(=O)N4Cc5ccccc5C[C@H]4CN4CCOCC4)cc3C2)c1
target under test: RS4; 11 leukaemia cell line
readout label: IC50
display unit: nM
bound operator: =
assay value: 13

compound: Cc1c(C(=O)N(C)c2ccc(O)cc2)cc(-c2cc3c(cc2C(=O)N2Cc4ccccc4C[C@H]2CN2CCN(C)CC2)CN(C(=O)C(F)(F)F)CC3)n1C
target under test: RS4; 11 leukaemia cell line
readout label: IC50
display unit: nM
bound operator: >
assay value: 150

compound: Cc1c(C(=O)N(C)c2ccc(O)cc2)cc(-c2cc3c(cc2C(=O)N2Cc4ccccc4C[C@H]2C)CN(C(=O)Oc2ccccc2)C3)n1C
target under test: RS4; 11 leukaemia cell line
readout label: IC50
display unit: nM
bound operator: =
assay value: 12

compound: C[C@@H]1Cc2ccccc2CN1C(=O)c1cc2c(cc1-c1cc(C(=O)N(C)c3ccc(O)cc3)c3n1CCCC3)CCN(C(=O)NC(C)(C)C)C2
target under test: RS4; 11 leukaemia cell line
readout label: IC50
display unit: nM
bound operator: =
assay value: 40

compound: CN(C(=O)c1cc(-c2cc3c(cc2C(=O)N2Cc4ccccc4C[C@H]2CN2CCOCC2)CN(C(=O)NCc2ccccc2)CC3)n2c1CCCC2)c1ccc(O)cc1
target under test: RS4; 11 leukaemia cell line
readout label: IC50
display unit: nM
bound operator: =
assay value: 142

compound: CCC(=O)N1Cc2cc(C(=O)N3Cc4ccccc4C[C@H]3CN3CCOCC3)c(-c3cc(C(=O)N(C)c4ccc(O)cc4)c4n3CCCC4)cc2C1 [Example 11, hydrochloride]
target under test: RS4; 11 leukaemia cell line
readout label: IC50
display unit: nM
bound operator: =
assay value: 763

compound: CN(C(=O)c1cc(-c2cc3c(cc2C(=O)N2Cc4ccccc4C[C@H]2CN2CCOCC2)CN(C(=O)NC(C)(C)C)C3)n2c1CCCC2)c1ccc(O)cc1 [Example 17, hydrochloride]
target under test: RS4; 11 leukaemia cell line
readout label: IC50
display unit: nM
bound operator: =
assay value: 1760
